experiment: fission yeast growth modulation, primary screen, strain 972, OD600, 24 h, no modulator (AID 1090);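 also: basal condition with compound alone and no growth modifier present; test concentration not given here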; details: S. pombe 972 growth, higher = more signal, called active from +8 up or from −8 down
property name: z-score
Numbers only.

Hello, I would appreciate it if you could give z-score for each entry below.
1. COC(=O)[C@@]1(Cc2ccccc2)N=C(c2ccc(OCCCO)cc2)O[C@H]1c1ccccc1
2. C[N+](C)(C)CCCCNC(=O)[C@H]1C[C@H]2C(=O)N3CCC[C@H]3C(=O)N2[C@H]1c1cccc(OCCO)c1
3. O=C(OCc1ccccc1)C1=CCC2c3[nH]c4ccccc4c3C(=O)C1N2S(=O)(=O)c1ccccc1[N+](=O)[O-] (stereo not drawn)

*A*
1: -1.99; 2: -0.0177; 3: 1.1

Values compiled from PubChem BioAssay.
